- measurement target: T1, recombinant rat MASP1 active protease (amino acids 302-704, C-terminal His Tag) (rat, UniProt Q8CHN8 302-704)
- T1 sequence: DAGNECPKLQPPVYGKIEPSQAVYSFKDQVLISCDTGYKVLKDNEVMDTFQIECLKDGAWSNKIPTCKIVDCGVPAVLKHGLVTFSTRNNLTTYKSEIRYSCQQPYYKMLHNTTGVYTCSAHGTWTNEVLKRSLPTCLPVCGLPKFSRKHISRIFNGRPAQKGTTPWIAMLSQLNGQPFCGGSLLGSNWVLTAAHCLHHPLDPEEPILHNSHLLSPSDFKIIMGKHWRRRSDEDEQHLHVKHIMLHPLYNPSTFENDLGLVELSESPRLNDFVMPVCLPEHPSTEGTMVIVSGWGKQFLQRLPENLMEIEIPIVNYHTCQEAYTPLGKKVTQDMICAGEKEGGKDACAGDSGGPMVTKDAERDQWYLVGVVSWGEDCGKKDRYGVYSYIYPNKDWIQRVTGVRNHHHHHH
- experiment: cell-based or functional assay
Bridge positions count the residues as written; N and C are the ends. Square brackets hold non-standard residues; d marks the D form. Ends that are not written are not given here. Chg = N[C@H](C(=O)O)C1CCCCC1; Sar = CNCC(=O)O
quantity: rat MASP1 IC50 (nM)
Express it in nM; write the number only.

[Q] Item under review: [Sar]ICSRSLPP[Chg]CIPD-NH2 (disulfide 3-11; N-terminus assumed; SMILES CC[C@H](C)[C@H](NC(=O)CNC)C(=O)N[C@H]1CSSC[C@@H](C(=O)N[C@H](C(=O)N2CCC[C@H]2C(=O)N[C@@H](CC(=O)O)C(N)=O)[C@@H](C)CC)NC(=O)[C@H](C2CCCCC2)NC(=O)[C@@H]2CCCN2C(=O)[C@@H]2CCCN2C(=O)[C@H](CC(C)C)NC(=O)[C@H](CO)NC(=O)[C@H](CCCNC(=N)N)NC(=O)[C@H](CO)NC1=O) [Example 282: ((N-Me)G)-IC+SRSLPP-(Chg)-C+IPD-NH2] . Reported rat MASP1 IC50?
[A] 470
